The values you see were collected from ChEMBL document CHEMBL2417485.

Listing: pIC50 of selected compounds
tested on: HUVEC; experiment: Antiproliferative activity against HUVEC after 72 hrs by MTT assay; assay type: cell-based; conditions: Homo sapiens
pIC50: −log10 of the molar value.

STRUCTURE	pIC50
Cl.c1ccc(-c2cccc(Nc3ncnc4cc5c(cc34)OCO5)c2)cc1	6.12
COc1cc2ncnc(Nc3cccc(Br)c3)c2cc1OC	5.39
Cl.c1ccc(-c2cccc(Nc3ncnc4cc5c(cc34)OCCO5)c2)cc1	7.10
Cl.c1ccc(-c2cccc(Nc3ncnc4cc5c(cc34)OCCCO5)c2)cc1	6.04

* * *

pIC50: −log10 of the molar value.
Tyrosine-protein kinase ABL1 (Homo sapiens) data, read-out pIC50
Sequence (P00519 whole entry): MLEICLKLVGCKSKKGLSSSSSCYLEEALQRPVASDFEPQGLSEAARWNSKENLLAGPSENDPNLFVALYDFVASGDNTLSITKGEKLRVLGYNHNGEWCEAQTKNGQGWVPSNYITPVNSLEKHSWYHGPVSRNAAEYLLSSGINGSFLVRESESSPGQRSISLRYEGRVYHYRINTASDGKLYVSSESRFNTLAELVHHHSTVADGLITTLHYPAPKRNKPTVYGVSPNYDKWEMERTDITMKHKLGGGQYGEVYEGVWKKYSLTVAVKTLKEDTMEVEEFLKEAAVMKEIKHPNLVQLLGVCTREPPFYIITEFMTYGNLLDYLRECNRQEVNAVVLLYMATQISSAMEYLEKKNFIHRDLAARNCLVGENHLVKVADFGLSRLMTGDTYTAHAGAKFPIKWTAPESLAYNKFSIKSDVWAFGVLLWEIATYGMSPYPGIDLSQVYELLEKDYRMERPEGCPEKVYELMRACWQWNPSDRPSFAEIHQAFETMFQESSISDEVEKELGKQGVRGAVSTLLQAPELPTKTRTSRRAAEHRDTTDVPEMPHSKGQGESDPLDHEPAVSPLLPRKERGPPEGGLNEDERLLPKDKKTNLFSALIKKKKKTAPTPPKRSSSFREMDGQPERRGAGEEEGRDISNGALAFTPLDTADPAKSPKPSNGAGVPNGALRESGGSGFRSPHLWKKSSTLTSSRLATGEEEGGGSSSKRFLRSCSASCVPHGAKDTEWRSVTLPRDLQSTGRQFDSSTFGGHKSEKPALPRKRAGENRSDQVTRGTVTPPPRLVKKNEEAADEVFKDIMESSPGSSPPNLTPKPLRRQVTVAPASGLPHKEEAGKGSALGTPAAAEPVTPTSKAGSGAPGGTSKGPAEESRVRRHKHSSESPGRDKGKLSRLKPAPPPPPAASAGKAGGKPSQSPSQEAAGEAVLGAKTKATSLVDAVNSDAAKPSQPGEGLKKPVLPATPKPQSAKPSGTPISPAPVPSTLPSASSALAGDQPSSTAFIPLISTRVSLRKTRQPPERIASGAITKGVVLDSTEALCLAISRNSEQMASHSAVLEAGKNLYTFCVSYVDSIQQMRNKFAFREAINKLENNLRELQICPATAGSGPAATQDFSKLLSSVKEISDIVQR

STRUCTURE	pIC50
Cl.c1ccc(-c2cccc(Nc3ncnc4cc5c(cc34)OCCCO5)c2)cc1	7.25
Cl.c1ccc(-c2cccc(Nc3ncnc4cc5c(cc34)OCO5)c2)cc1	7.29
Cl.c1ccc(-c2cccc(Nc3ncnc4cc5c(cc34)OCCO5)c2)cc1	7.62
